# System: minus strand HCV RNA
# Format: biochemical, Hepatitis C virus
# assay context: minus strand (−) HCV site, 50 mM Tris-Cl, pH 8.0, 40 mM Mg2+ at 37°, trace substrate, enzymatic nucleic acid concentration of 500 nM or greater
[2NH2-N] = 2'-deoxy-2'-amino ribonucleotide (N: the base); [invAb] = 3' inverted deoxyabasic cap
property: % Substrate Cleaved in 3 hours (%)
Value expressed in %; do not type the unit.

Consider the reported % Substrate Cleaved in 3 hours for these substances:
22951 (UGAGGAGCUGAUGAGGCCGUUAGGCCGAAACGUGGA; 2'-O-methyl at 1, 2, 3, 4, 5, 6, 7, 15, 16, 17, 18, 19, 20, 21, 22, 23, 24, 25, 26, 31, 32, 33, 34, 35, 36, [invAb] at 3' end, other sugars and backbone not given here) [compound 22951]    83.25
22755 (CGAAGCAGCCGAAAGGCGAGUGAGGUCUAUGUGGA; 2'-O-methyl at 1, 2, 3, 4, 5, 6, 7, 8, 9, 10, 11, 12, 13, 14, 15, 16, [2NH2-N] at 17, 27, [invAb] at 3' end, other sugars and backbone not given here) [compound 22755]    81.10

Looking up 22948 (GCGAGCCCUGAUGAGGCCGUUAGGCCGAAACGAGUC; 2'-O-methyl at 1, 2, 3, 4, 5, 6, 7, 15, 16, 17, 18, 19, 20, 21, 22, 23, 24, 25, 26, 31, 32, 33, 34, 35, 36, [invAb] at 3' end, other sugars and backbone not given here) [compound 22948] , I found its % Substrate Cleaved in 3 hours recorded as 88.34

====

# Test system: plus strand HCV RNA
# Format: biochemical, Hepatitis C virus
# assay context: plus strand (+) HCV site, 50 mM Tris-Cl, pH 8.0, 40 mM Mg2+ at 37°, trace substrate, enzymatic nucleic acid concentration of 500 nM or greater
[invAb] = 3' inverted deoxyabasic cap; [I] = hypoxanthine (inosine); m = 2'-O-methyl; r = 2'-OH (RNA)
Form field: % Substrate Cleaved in 3 hours (one value per entry).
Reply with just the number (in %).

// known answers, use as guide
22943 (GCUGAGACUGAUGAGGCCGUUAGGCCGAAACGAGGA; 2'-O-methyl at 1, 2, 3, 4, 5, 6, 7, 15, 16, 17, 18, 19, 20, 21, 22, 23, 24, 25, 26, 31, 32, 33, 34, 35, 36, [invAb] at 3' end, other sugars and backbone not given here) [compound 22943]    89.67
22971 (AGGAAGAGGCTAGCTACAACGAAGAGAAAN; 3' inverted abasic cap (B); misc_feature (30)..(30): n stands for inverted deoxyabasic derivative; misc_feature (1)..(7): 2'-O-Methyl; misc_feature (23)..(29): 2'-O-Methyl) [compound 22971]    92.11
22721 (UCUAAGGUGAUGGCAUGCACUAUGCGCGACACGGU; sugars from the 5' end mmmmmmmmrrrmmmmmrmmmmmmmmmrmmmmmmmm, [invAb] at 3' end, backbone not given here) [compound 22721]    47.37

Could you now consider this next substance?
// % Substrate Cleaved in 3 hours lookup, substance = 22779 (UGAGGAACUGAUGAGGCCGUUAGGCCGAANGUGGAG; ribozyme; 2'-O-methyl at 1, 2, 3, 4, 5, 6, 7, 15, 16, 17, 18, 19, 20, 21, 22, 23, 24, 25, 26, 31, 32, 33, 34, 35, 36, [I] at 30, [invAb] at 3' end, other sugars and backbone not given here) [compound 22779] , result: 82.22

====

# System: plus strand HCV RNA
# Format: biochemical, Hepatitis C virus
# assay context: plus strand (+) HCV site, 50 mM Tris-Cl, pH 8.0, 40 mM Mg2+ at 37°, trace substrate, enzymatic nucleic acid concentration of 500 nM or greater
[amino-N] = 2'-deoxy-2'-amino nucleotide (N: the base); [invAb] = 3' inverted deoxyabasic derivative
As shown below, each of these substances has a reported % Substrate Cleaved in 3 hours value.
// return numeric value only (unit: %, not printed)

22749 (GGAAAAGGCCGAAAGGCGAGUGAGGUCUAACAGGA; 2'-O-methyl at 1, 2, 3, 4, 5, 6, 7, 8, 9, 10, 11, 12, 13, 14, 15, 16, [amino-N] at 17, 27, [invAb] at 3' end, other sugars and backbone not given here) [compound 22749]    90.80

# next substance below
The substance listed as 22973 (AGGUGAAGGCTAGCTACAACGAAGCUGAGN; 3' inverted abasic cap (B); Description of Artificial Sequence: Nucleic Acid; misc_feature (30)..(30): n stands for inverted deoxyabasic derivative; misc_feature (1)..(7): 2'-O-Methyl; misc_feature (23)..(29): 2'-O-Methyl) [compound 22973] has a reported % Substrate Cleaved in 3 hours of 83.15

====

# System: plus strand HCV RNA
# Assay type: biochemical, Hepatitis C virus
# assay context: plus strand (+) HCV site, 50 mM Tris-Cl, pH 8.0, 40 mM Mg2+ at 37°, trace substrate, enzymatic nucleic acid concentration of 500 nM or greater
[invAb] = 3' inverted deoxyabasic cap; [I] = hypoxanthine (inosine)
So basically: % Substrate Cleaved in 3 hours at 80% or higher? That is Fulfilled. Lower than 80%? That is Not fulfilled.

22975 (UGGUGUAGGCTAGCTACAACGAGCGUUGAN; 3' inverted abasic cap (B); Description of Artificial Sequence: Nucleic Acid; misc_feature (30)..(30): n stands for inverted deoxyabasic derivative; misc_feature (1)..(7): 2'-O-Methyl; misc_feature (23)..(29): 2'-O-Methyl) [compound 22975]    Not fulfilled
22776 (GGUGAACCUGAUGAGGCCGUUAGGCCGAANCUGAGA; ribozyme; 2'-O-methyl at 1, 2, 3, 4, 5, 6, 7, 15, 16, 17, 18, 19, 20, 21, 22, 23, 24, 25, 26, 31, 32, 33, 34, 35, 36, [I] at 30, [invAb] at 3' end, other sugars and backbone not given here) [compound 22776]    Fulfilled
22974 (CUGGUGAGGCTAGCTACAACGAGGAGGCUN; 3' inverted abasic cap (B); misc_feature (30)..(30): n stands for inverted deoxyabasic derivative; misc_feature (1)..(7): 2'-O-Methyl; misc_feature (23)..(29): 2'-O-Methyl) [compound 22974]    Not fulfilled

Okay, next one:
stdin: Determine whether measured % Substrate Cleaved in 3 hours meets or exceeds 80% for 22945 (GGAAGGACUGAUGAGGCCGUUAGGCCGAAAGGAUGC; 2'-O-methyl at 1, 2, 3, 4, 5, 6, 7, 15, 16, 17, 18, 19, 20, 21, 22, 23, 24, 25, 26, 31, 32, 33, 34, 35, 36, [invAb] at 3' end, other sugars and backbone not given here) [compound 22945]
stdout: Fulfilled
